Reference source: paper PMC4369446

# System: T1, cMOAT2 peptide on HLA-A*02:01 (human)
# T1 peptide: NVADIGLHDV
# Experiment Notes: cytokine release
Test Readout: binding result

Binder	Data Value
SIG35α / TRBV27 Cl.758 (TCR) alpha TRAV12-2 J35 CDR3: CAVSIGFGNVL beta TRBV27 TRBJ2-2 CDR3: CASSPRLAGDGELFF	no recognition
SIG35α / TRBV27 Cl.1599 (TCR) alpha TRAV12-2 J35 CDR3: CAVSIGFGNVL beta TRBV27 TRBJ1-1 CDR3: CASSFLGAMAEAFF	no recognition
SIG35α / TRBV27 Cl.413 (TCR) alpha TRAV12-2 J35 CDR3: CAVSIGFGNVL beta TRBV27 TRBJ1-4 CDR3: CASSVFGGDMGEKLFF	no recognition
SIG35α / TRBV27 Cl.788 (TCR) alpha TRAV12-2 J35 CDR3: CAVSIGFGNVL beta TRBV27 TRBJ2-7 CDR3: CASGPSYEQYF	no recognition

Looking up SIG35α / TRBV27 Cl.794 (TCR) alpha TRAV12-2 J35 CDR3: CAVSIGFGNVL beta TRBV27 TRBJ1-2 CDR3: CASSLLGDYGYTF , I found its binding result recorded as no recognition

Looking up SIG35α / TRBV27 Cl.523 (TCR) alpha TRAV12-2 J35 CDR3: CAVSIGFGNVL beta TRBV27 TRBJ2-7 CDR3: CASGSYEQYF , I found its binding result recorded as no recognition

Looking up SIG35α / TRBV27 Cl.1593 (TCR) alpha TRAV12-2 J35 CDR3: CAVSIGFGNVL beta TRBV27 TRBJ1-5 CDR3: CASGNNQPQHF , I found its binding result recorded as no recognition
